Assay Remarks: growth suppression of PTEN-deleted HCT116, pilot screen, cell-based, HCT116 clonal line, CellTiter-Glo (AID 824);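 further: 0% = 20 µM Hyamine control and 100% = vehicle cell control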
Test Settings: 60 h, at 10 µM, stronger effect = lower value
Records with an inconclusive call do not appear.
Assay Metric: viability (%)
Write down the numeric answer in % and omit the unit.

Data request: viability lookup needed for CCOC(=O)c1cnn2c(C(F)(F)F)cc(-c3ccccc3)nc12 , thanks.
Data returned: 86.9

Data request: Another: CCOC(=O)C1Cn2c(nc3c(c2=O)C(C)(CC)Cc2ccccc2-3)S1 (stereo unspecified)
Data returned: 77.7

Data request: Next compound: CCOC(=O)C1CCCN(C(=O)CN(c2ccc(OC)cc2)S(=O)(=O)c2c(C)noc2C)C1 (stereo unspecified)
Data returned: 93.8

Data request: Entry to check: COCCCNC(=O)c1c(F)c(F)c(F)c(F)c1F
Data returned: 92.9

Data request: Item: CCSC1=C(C#N)C(c2ccccc2C)CC(=O)N1 (stereo unspecified)
Data returned: 87.7

Data request: And the next one, O=C(Nc1ccccc1F)C1CCCN(S(=O)(=O)c2cccc3cccnc23)C1 (stereo unspecified) ?
Data returned: 88.8

Data request: Likewise for C=CCNC(=O)c1cnc2n(c1=O)CCS2 ?
Data returned: 109

Data request: Do the same for CC(Sc1ccc2nnc(-c3ccc(F)cc3)n2n1)C(=O)O (stereo unspecified) please
Data returned: 94.2

Data request: Record: Cc1cc(C)n2nc(SCC#N)nc2n1
Data returned: 95.4

Data request: Next entry: CCOC(=O)C1=C(C)Nc2nc(C)nn2C1c1cc(OC)ccc1OC (stereo unspecified)
Data returned: 100

Data request: Okay, and CCOC(=O)c1c(C)c(-c2ccccc2)n(CC(=O)N2CCCC2)c1C ?
Data returned: 92.3
